test_system: IR (Homo sapiens (Human))
Sequence (P06213 28-1382): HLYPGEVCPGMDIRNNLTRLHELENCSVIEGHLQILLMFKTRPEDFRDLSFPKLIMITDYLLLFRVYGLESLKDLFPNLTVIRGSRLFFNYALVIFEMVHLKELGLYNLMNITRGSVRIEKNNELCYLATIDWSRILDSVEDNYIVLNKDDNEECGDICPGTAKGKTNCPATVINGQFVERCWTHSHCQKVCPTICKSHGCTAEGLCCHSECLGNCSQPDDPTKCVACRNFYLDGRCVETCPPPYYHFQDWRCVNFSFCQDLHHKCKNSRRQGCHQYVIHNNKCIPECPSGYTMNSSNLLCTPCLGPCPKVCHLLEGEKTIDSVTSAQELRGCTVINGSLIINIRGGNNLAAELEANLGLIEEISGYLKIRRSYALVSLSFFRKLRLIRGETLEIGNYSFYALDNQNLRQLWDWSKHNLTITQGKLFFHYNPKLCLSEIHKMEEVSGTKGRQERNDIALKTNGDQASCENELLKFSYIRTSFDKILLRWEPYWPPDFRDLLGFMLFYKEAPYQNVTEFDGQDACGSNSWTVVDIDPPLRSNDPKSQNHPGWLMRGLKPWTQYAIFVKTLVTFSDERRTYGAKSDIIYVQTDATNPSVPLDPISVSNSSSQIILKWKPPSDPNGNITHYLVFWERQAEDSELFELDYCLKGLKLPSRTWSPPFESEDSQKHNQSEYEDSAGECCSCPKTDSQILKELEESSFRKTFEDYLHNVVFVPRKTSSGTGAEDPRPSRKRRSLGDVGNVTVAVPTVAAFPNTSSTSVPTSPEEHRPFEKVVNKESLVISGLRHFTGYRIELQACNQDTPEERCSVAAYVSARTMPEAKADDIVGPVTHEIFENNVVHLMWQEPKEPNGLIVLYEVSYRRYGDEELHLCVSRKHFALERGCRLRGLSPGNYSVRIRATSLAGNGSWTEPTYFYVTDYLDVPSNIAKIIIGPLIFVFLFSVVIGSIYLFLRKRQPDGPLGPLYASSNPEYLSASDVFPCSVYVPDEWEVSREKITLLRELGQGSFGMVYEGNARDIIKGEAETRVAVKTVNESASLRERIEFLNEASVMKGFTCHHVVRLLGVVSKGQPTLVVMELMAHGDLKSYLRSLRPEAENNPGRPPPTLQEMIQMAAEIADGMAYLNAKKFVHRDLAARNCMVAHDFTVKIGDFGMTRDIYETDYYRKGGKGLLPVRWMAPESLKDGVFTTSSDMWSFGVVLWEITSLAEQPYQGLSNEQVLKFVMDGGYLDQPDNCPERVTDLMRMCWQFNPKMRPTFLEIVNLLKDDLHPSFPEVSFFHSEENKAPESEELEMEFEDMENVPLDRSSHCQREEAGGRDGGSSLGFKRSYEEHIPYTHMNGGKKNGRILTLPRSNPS
protocol_description: IR kinase selectivity assay
Type: biochemical
condition_notes: 1 μM inhibitor concentration
Here, each record is paired with measured percentage inhibition of IR data.
measurement_name: percentage inhibition of IR (percentage)

| structure | unit_annotation | reported_result |
| --- | --- | --- |
| CC(C)n1ncc2c1CN(C1CCN(C)CC1)c1nccc3[nH]nc-2c13 | percentage | 0 |
| c1cc2[nH]nc3c2c(n1)N(C1CCCC1)CCC3 | percentage | 1 |
| c1cc2[nH]nc3c2c(n1)N(C1CCC1)CCC3 | percentage | 27 |
| CN1CCC(N2Cc3ccccc3-c3n[nH]c4ccnc2c34)CC1 | percentage | 5 |
| c1cc2[nH]nc3c2c(n1)N(C1CCOCC1)CCC3 | percentage | 2 |

---

test_system: UniProt:Q15303
Sequence (Q15303 26-1308, species assumed): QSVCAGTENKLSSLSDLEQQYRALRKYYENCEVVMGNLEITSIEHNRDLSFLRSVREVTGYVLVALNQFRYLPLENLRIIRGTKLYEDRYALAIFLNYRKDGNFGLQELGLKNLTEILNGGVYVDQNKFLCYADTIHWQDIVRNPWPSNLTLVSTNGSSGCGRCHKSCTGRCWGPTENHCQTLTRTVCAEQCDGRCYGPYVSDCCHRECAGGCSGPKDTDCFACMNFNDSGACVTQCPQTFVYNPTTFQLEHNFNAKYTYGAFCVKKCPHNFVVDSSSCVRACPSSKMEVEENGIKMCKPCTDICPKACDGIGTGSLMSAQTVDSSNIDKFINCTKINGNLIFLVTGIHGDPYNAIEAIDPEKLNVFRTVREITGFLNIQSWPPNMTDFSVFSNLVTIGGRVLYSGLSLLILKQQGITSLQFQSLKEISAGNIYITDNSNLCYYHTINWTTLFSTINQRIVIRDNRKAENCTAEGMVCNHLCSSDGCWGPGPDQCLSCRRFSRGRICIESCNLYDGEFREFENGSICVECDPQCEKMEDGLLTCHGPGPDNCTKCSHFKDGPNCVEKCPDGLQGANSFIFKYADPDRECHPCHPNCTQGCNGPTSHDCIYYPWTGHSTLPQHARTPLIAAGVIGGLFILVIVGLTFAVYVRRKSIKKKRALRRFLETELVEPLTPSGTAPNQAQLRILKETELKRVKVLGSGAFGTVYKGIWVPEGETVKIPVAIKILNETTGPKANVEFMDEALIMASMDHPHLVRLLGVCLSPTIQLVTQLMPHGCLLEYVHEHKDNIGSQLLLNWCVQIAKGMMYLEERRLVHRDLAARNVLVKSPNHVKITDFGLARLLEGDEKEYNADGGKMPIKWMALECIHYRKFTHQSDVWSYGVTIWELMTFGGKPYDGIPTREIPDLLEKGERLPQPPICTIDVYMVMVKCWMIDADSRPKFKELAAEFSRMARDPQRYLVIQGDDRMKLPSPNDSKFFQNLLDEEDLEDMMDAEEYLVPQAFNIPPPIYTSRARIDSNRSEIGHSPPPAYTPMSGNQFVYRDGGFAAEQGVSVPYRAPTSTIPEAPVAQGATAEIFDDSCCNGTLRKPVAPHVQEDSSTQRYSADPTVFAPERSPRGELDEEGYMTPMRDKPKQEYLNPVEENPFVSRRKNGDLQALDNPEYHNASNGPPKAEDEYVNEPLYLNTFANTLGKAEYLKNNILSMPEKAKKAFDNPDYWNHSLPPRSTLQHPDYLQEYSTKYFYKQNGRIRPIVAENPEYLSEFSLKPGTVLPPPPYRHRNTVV
protocol_description: HER4 kinase selectivity assay
Type: biochemical
condition_notes: 1 μM inhibitor concentration
Here, each record is paired with measured percentage inhibition of HER4 data.

| structure | percentage inhibition of HER4 (percentage) |
| --- | --- |
| c1cc2[nH]nc3c2c(n1)N(C1CCOCC1)CCC3 | 10 |
| CN1CCC(N2Cc3ccccc3-c3n[nH]c4ccnc2c34)CC1 | 0 |
| CC(C)n1ncc2c1CN(C1CCN(C)CC1)c1nccc3[nH]nc-2c13 | 1 |
| c1cc2[nH]nc3c2c(n1)N(C1CCCC1)CCC3 | 3 |
| c1cc2[nH]nc3c2c(n1)N(C1CCC1)CCC3 | 8 |

---

Test system: VEG-FR
protocol_description: VEG-FR kinase selectivity assay
Format: biochemical
condition_notes: 1 μM inhibitor concentration
Procedure: VEG-FR (5-20 mU diluted in 50 mM Tris pH 7.5, 0.1 mM EGTA, 1 mg/ml BSA) is assayed against a substrate peptide ([…]) in a final volume of 25.5 μl containing 50 mM Tris pH 7.5, 300 µM substrate peptide, 10 mM magnesium acetate and 0.02 mM [33P-g-ATP] (50-1000 cpm/pmole) and incubated for 30 min at room temperature. Assays are stopped by addition of 5 μl of 0.5 M (3%) orthophosphoric acid and then harvested onto P81 Unifilter plates with a wash buffer of 50 mM orthophosphoric acid.
measurement_name: percentage inhibition of VEG-FR (percentage)

| structure | reported_result |
| --- | --- |
| c1cc2[nH]nc3c2c(n1)N(C1CCC1)CCC3 | 0 |
| CN1CCC(N2Cc3ccccc3-c3n[nH]c4ccnc2c34)CC1 | 19 |
| c1cc2[nH]nc3c2c(n1)N(C1CCOCC1)CCC3 | 9 |
| CC(C)n1ncc2c1CN(C1CCN(C)CC1)c1nccc3[nH]nc-2c13 | 42 |

---

Here, each record is paired with measured percentage inhibition of PRK2 data.
test_system: PRK2 (Homo sapiens (Human))
Sequence (Q16513 whole entry, species assumed): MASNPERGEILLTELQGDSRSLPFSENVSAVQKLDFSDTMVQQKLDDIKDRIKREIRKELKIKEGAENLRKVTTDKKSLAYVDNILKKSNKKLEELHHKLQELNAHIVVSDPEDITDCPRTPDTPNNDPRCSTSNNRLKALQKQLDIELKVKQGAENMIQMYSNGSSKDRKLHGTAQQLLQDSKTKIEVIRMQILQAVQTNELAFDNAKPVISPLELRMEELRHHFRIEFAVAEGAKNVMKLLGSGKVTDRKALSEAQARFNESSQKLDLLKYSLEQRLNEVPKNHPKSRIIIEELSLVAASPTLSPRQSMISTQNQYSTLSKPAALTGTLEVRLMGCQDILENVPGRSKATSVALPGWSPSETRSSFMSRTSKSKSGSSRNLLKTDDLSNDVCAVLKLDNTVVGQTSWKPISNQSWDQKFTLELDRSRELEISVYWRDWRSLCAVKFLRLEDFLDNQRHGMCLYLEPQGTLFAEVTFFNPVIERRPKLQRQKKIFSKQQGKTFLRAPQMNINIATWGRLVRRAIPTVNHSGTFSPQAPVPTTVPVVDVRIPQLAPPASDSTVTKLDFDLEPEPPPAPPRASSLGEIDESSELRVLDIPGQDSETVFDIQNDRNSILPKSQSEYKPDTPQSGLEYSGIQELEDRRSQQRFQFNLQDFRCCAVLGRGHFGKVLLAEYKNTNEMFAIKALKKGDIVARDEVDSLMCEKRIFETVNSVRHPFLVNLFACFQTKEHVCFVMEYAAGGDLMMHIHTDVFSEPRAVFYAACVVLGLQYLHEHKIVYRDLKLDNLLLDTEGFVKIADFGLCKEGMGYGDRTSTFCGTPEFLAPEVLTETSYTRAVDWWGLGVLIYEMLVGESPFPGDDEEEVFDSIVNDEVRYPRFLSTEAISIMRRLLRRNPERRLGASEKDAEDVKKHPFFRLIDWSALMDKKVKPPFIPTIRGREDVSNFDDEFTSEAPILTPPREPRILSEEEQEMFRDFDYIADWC
protocol_description: PRK2 kinase selectivity assay
Type: biochemical
condition_notes: 1 μM inhibitor concentration

| structure | unit_annotation | percentage inhibition of PRK2 |
| --- | --- | --- |
| c1cc2[nH]nc3c2c(n1)N(C1CCC1)CCC3 | percentage | 2 |
| c1cc2[nH]nc3c2c(n1)N(C1CCOCC1)CCC3 | percentage | 0 |
| CN1CCC(N2Cc3ccccc3-c3n[nH]c4ccnc2c34)CC1 | percentage | 0 |
| c1cc2[nH]nc3c2c(n1)N(C1CCCC1)CCC3 | percentage | 0 |
| CC(C)n1ncc2c1CN(C1CCN(C)CC1)c1nccc3[nH]nc-2c13 | percentage | 8 |
